assay: acute toxicity in mice; details: mouse, in vivo, ip; Mäusen, intraperitoneal; read-out: LD₅₀
assay endpoint: LD50 (mg/kg)
Numbers only, in mg/kg.

Exercise: Give the value of LD50 reported for the following: CCOC(=O)Nc1cccc2c1CN(C)CC2c1ccc(Cl)cc1 (racemic)
Key: 125

---

assay: acute toxicity in mice; conditions: mouse, in vivo; Mäusen, oral; read-out: LD₅₀
assay endpoint: LD50 (mg/kg)
Answers are plain numbers, in mg/kg.

Exercise: Give the value of LD50 reported for the following: CCOC(=O)Nc1cccc2c1CN(C)CC2c1ccc(Cl)cc1 (racemic) [Ia]
Key: 250
